Biological target: recombinant human FLAP protein (Homo sapiens, UniProt P20292)
Construct: made in house; host or cells: Sf9 insect cells (membrane fraction, 100,000 x g pellet)
Sequence (P20292 1-161): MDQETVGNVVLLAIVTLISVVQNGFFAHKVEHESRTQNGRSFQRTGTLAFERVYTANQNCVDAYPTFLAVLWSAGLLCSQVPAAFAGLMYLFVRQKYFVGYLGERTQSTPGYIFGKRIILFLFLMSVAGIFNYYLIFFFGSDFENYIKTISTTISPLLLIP
Test: FLAP binding assay (Scintillation Proximity Assay, displacement of [125I]L-691,831)
Details: read-out: Human FLAP SPA Binding (IC50 nM)
quantity_name: IC50 (nM)

{"molecule": "CC(C)[C@](C)(c1ccc(-c2cnc(N)nc2)nc1)c1cc(-c2cnn(C)c2)on1", "test_system": "recombinant human FLAP protein (Homo sapiens, UniProt P20292)", "quantity_name": "IC50", "measurement_unit": "nM", "observed": 7.5}
{"molecule": "CN1CCN(C(=O)c2cccc3c(C4(c5ccc(-c6cnc(N)nc6)cc5)CCC4)c[nH]c23)CC1", "test_system": "recombinant human FLAP protein (Homo sapiens, UniProt P20292)", "quantity_name": "IC50", "measurement_unit": "nM", "observed": 1.7}
{"molecule": "CN(C)CCn1cc(-c2cnc(C3(c4ccc(-c5cnc(N)nc5)cc4)CCC3)s2)cn1", "test_system": "recombinant human FLAP protein (Homo sapiens, UniProt P20292)", "quantity_name": "IC50", "measurement_unit": "nM", "observed": 6.1}
{"molecule": "CC(C)C(C)(c1ccc(-c2cnc(N)nc2)cc1)c1c[nH]c2ccccc12 (centres unmarked)", "test_system": "recombinant human FLAP protein (Homo sapiens, UniProt P20292)", "quantity_name": "IC50", "measurement_unit": "nM", "observed": 2.5}
{"molecule": "CC(C)C(C)(c1ccc(-c2cnc(N)nc2)cc1)c1cn(Cc2ccc(Cl)cc2)c2ccccc12 (centres unmarked)", "test_system": "recombinant human FLAP protein (Homo sapiens, UniProt P20292)", "quantity_name": "IC50", "measurement_unit": "nM", "observed": 5.1}
{"molecule": "CC(C)C(C)(c1ccc(OCc2ccccn2)cc1)c1cn(C)c2cc(C(=O)O)ccc12 (centres unmarked)", "test_system": "recombinant human FLAP protein (Homo sapiens, UniProt P20292)", "quantity_name": "IC50", "measurement_unit": "nM", "observed": 1.8}
{"molecule": "CC(C)C(C)(c1ccc(-c2cnc(N)nc2)cc1)c1c[nH]c2cc(-c3nnn[nH]3)ccc12 (centres unmarked)", "test_system": "recombinant human FLAP protein (Homo sapiens, UniProt P20292)", "quantity_name": "IC50", "measurement_unit": "nM", "observed": 1}
{"molecule": "COC(=O)c1[nH]c2ccccc2c1C1(c2ccc(-c3cnc(N)nc3)cc2)CCC1", "test_system": "recombinant human FLAP protein (Homo sapiens, UniProt P20292)", "quantity_name": "IC50", "measurement_unit": "nM", "observed": 6.1}

Origin of values: patent US9174980B2
